- targetDesc: T1, CaBdf1 BD1 (GST-tagged, wild-type) (Candida albicans (strain SC5314 / ATCC …, UniProt Q5A4W8))
- T1 chain: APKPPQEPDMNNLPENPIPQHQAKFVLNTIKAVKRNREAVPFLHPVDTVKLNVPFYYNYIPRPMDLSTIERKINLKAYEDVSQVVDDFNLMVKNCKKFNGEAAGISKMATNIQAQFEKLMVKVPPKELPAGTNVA
- testMethodNotes: histone peptide array (Active Motif MODified), 1 uM GST-tagged bromodomain, anti-GST detection, normalized mean intensity
Square brackets hold non-standard residues; d marks the D form. Ends that are not written are not given here. Arg(Me2a) = CN(C)C(=N)NCCC[C@H](N)C(=O)O; Lys(Me3) = C[N+](C)(C)CCCC[C@H](N)C(=O)O; Arg(Me2s) = CN=C(NC)NCCC[C@H](N)C(=O)O; Lys(Me2) = CN(C)CCCC[C@H](N)C(=O)O; Lys(Me) = CNCCCC[C@H](N)C(=O)O
observable: binding score

binder	dataValue
A[Arg(Me2a)]T[Lys(Me3)]QTA[Arg(Me2a)][Lys(Me2)]STGGKAPRKQ	0.00254
SGRGKGGKGLGKGGAKRHR (pS G Rme2a G Kac G G K G L G K G G A K R H R) [H4 1-19]	0.0105
ARTKQTARKSTGGKAPRKQ (A R T K Q T A Rme2a K S pT G G K A P R K Q)	0.00399
SGRGK(Ac)QGGKARAKAKSRSS [H2a 1-19]	0.021
PRKQLATKAARKSAPATGG (P R K Q L A T K A A Rme2a Kme2 S A P A T G G) [H3 16-35]	0.00363

# context switch: different binder, same binding score
Task: Item A[Arg(Me2a)]T[Lys(Me)]QTA[Arg(Me2s)][Lys(Me)]STGGKAPRKQ has what recorded binding score?
Output: 0.00471
